B1: SMG5 (parent)
chain: TRKLSPGKKRCKDIKRLLVNFMYL

# Variants of: B1
# RUN_DESCRIPTION: protein stability index of a GFP-peptide fusion (GPS, HEK-293T) (PSI 1-6); higher = more stable;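 further: lentivirally expressed fusions sorted by FACS into six bins by GFP to DsRed ratio, PSI derived from sequencing read proportions per bin multiplied by bin number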
# ASSAY_CONTEXT: c terminus: a fixed tail appended
ENDPOINT: protein stability index
// return a plain number; no unit text

Worked examples, 5 variants total:
Need protein stability index, item GRKLSPGKKRCKDIKRLLVNFMYL [T1G] 1.92

Given the entry TRKLSPGKKRCKDIKRMLVNFMYL [L17M] , report its measured protein stability index. 2.12

Recorded protein stability index for TRKLSPGKKRCKDIKRALVNFMYL [L17A] , please? 1.77

May I ask what protein stability index has been recorded for TRKLPPGKKRCKDIKRLLVNFMYL [S5P] ? 2.54

Which value of protein stability index has been reported for TRKLSPGKKRCKDIKRLRVNFMYL [L18R] in the records? 1.68

***
Data request, read-out protein stability index, for TRKLSPGKKRCKDIKRDLVNFMYL [L17D] 2.24

Report protein stability index for TRKLSPGKKRCKDIKRSLVNFMYL [L17S] please. 2.56

Record request: protein stability index value, item TRKTSPGKKRCKDIKRLLVNFMYL [L4T] 1.62

Would you mind telling me what protein stability index value was observed for TRKLSPGKKRCKDIKRLLVWFMYL [N20W] ? 1.09

Dear colleague, I am looking for the recorded protein stability index of the following variant: TRKLSPGKKRCKTIKRLLVNFMYL [D13T] 3.66

So what's the measured protein stability index for this one? TRKLSPGKKRCKDIKTLLVNFMYL [R16T] 2.9

Need protein stability index of TRKLSPGKKRCKDIPRLLVNFMYL [K15P] , thanks. 2.23

I would be grateful if you could share the reported protein stability index for TRKLGPGKKRCKDIKRLLVNFMYL [S5G] . 2.7

I would be grateful if you could share the reported protein stability index for TRKLSPGKKRCCDIKRLLVNFMYL [K12C] . 3.37

What does the data say about its protein stability index? Entry: TRKLSPGKKRCKDIKRLLVNFMYQ [L24Q] 2.04

Field request: protein stability index | item: RRKLSPGKKRCKDIKRLLVNFMYL [T1R] 4.28

# input variant: TRKLSPGKVRCKDIKRLLVNFMYL [K9V] ; wanted: its protein stability index 2.04
